- System: Human immunodeficiency virus 1
- Method description: Antiviral activity against human HIV-1 3B infected in human MT4 cells assessed as protection from virus-induced cytopathic effect measured 5 days post infection by MTT assay
- Assay type: functional, organism-based
- Test parameters: Human immunodeficiency virus 1, 3B, MT4, 120 h
I'd be grateful if you could share measured EC50 for these entries.

EC50 lookup needed for "O=C(CSc1nc2cnc(Cl)nc2n1-c1ccc(C2CC2)c2ccccc12)Nc1ccc(C(F)(F)F)cc1" , thanks.
> 16.2 µM

Another molecule to check: "O=C(CSc1nc2cnc(Cl)nc2n1-c1cccc2ccccc12)Nc1ccc(C(F)(F)F)cc1"
> 14.3 µM

Try the molecule "NC(=O)c1ccc(NC(=O)CSc2nc3cnc(Cl)nc3n2-c2cccc3ccccc23)cc1"
≥ 28.8 µM

Where do these numbers come from? They come from ChEMBL document CHEMBL4477260.
